tested on: Escherichia coli; assay: Antimicrobial activity against ESBL-positive Escherichia coli by broth microdilution method; type: functional
measurement.type: MIC90 (µg/mL)
Express the result in µg/mL but write the number alone.

MIC90 reading for C[C@H]1COc2c(N3CCN(C)CC3)c(F)cc3c(=O)c(C(=O)O)cn1c23.C[C@H]1COc2c(N3CCN(C)CC3)c(F)cc3c(=O)c(C(=O)O)cn1c23.O : 32

MIC90 reading for C[C@@H](O)[C@H]1C(=O)N2C(C(=O)O)=C(SCCNC=N)C[C@H]12 [IMIPENEM ANHYDROUS] : 0.25

---

system: Klebsiella aerogenes; experiment: Antimicrobial activity against ESBL-negative Enterobacter aerogenes by broth microdilution method; type: functional
Would you kindly list MIC90 for each of these compounds?
Express the result in µg/mL but write the number alone.

MIC90 reading for C[C@H]1COc2c(N3CCN(C)CC3)c(F)cc3c(=O)c(C(=O)O)cn1c23.C[C@H]1COc2c(N3CCN(C)CC3)c(F)cc3c(=O)c(C(=O)O)cn1c23.O : 0.5

MIC90 reading for C[C@@H](O)[C@H]1C(=O)N2C(C(=O)O)=C(SCCNC=N)C[C@H]12 [IMIPENEM ANHYDROUS] : 1
